ASSAY TEXT: Critical micelle concentration in aqueous triethanalamine using drop shape analysis by surface tension measurement
Format: physicochemical
DETAILS: buffer
PROPERTY LABEL: CMC (µM)

>  <SMI>
CCCCCCCCCCCCCCCCCCCC(=O)NC(CCC(=O)O)(CCC(=O)O)CCC(=O)O

>  <PROPERTY LABEL>
CMC

>  <TEST RESULT>
3000

$$$$
>  <SMI>
CCCCCCCCCCCCCCCCOC(=O)NC(CCC(=O)O)(CCC(=O)O)CCC(=O)O

>  <PROPERTY LABEL>
CMC

>  <TEST RESULT>
6800

$$$$
>  <SMI>
CCCCCCCCCCCCCCCCNC(=O)NC(CCC(=O)O)(CCC(=O)O)CCC(=O)O

>  <PROPERTY LABEL>
CMC

>  <TEST RESULT>
4900

$$$$
>  <SMI>
CCCCCCCCCCCCCCCCCCCCOC(=O)NC(CCC(=O)O)(CCC(=O)O)CCC(=O)O

>  <PROPERTY LABEL>
CMC

>  <TEST RESULT>
500

$$$$
>  <SMI>
CCCCCCCCCCCCCCCCCCCCNC(=O)NC(CCC(=O)O)(CCC(=O)O)CCC(=O)O

>  <PROPERTY LABEL>
CMC

>  <TEST RESULT>
1400

$$$$
>  <SMI>
CCCCCCCCCCCCCCCCCC(=O)NC(CCC(=O)O)(CCC(=O)O)CCC(=O)O

>  <PROPERTY LABEL>
CMC

>  <TEST RESULT>
11000

$$$$
>  <SMI>
CCCCCCCCCCCCCCCCCCNC(=O)NC(CCC(=O)O)(CCC(=O)O)CCC(=O)O

>  <PROPERTY LABEL>
CMC

>  <TEST RESULT>
2200

$$$$
>  <SMI>
CCCCCCCCCCCCCCCCCCCCCC(=O)NC(CCC(=O)O)(CCC(=O)O)CCC(=O)O

>  <PROPERTY LABEL>
CMC

>  <TEST RESULT>
2000

$$$$
>  <SMI>
CCCCCCCCCCCCCCCC(=O)NC(CCC(=O)O)(CCC(=O)O)CCC(=O)O

>  <PROPERTY LABEL>
CMC

>  <TEST RESULT>
17000

$$$$
>  <SMI>
CCCCCCCCCCCCCCCCCCCCCCOC(=O)NC(CCC(=O)O)(CCC(=O)O)CCC(=O)O

>  <PROPERTY LABEL>
CMC

>  <TEST RESULT>
320

$$$$

a. CCCCCCCCCCCCCCCCCCOC(=O)NC(CCC(=O)O)(CCC(=O)O)CCC(=O)O
b. CCCCCCCCCCCCCCCCCCCCCCNC(=O)NC(CCC(=O)O)(CCC(=O)O)CCC(=O)O
Task: # returns the entry with the larger CMC; inputs a and b # respond with the chosen item's label
Result: a

Entry source: ChEMBL document CHEMBL1153411
